biological target: DCN1-UBC12 interaction (Homo sapiens (Human)); test: biochemical; assay type: binding; details: TR-FRET IC50
Strictly below 200 nM in IC50: 1 (yes). Otherwise: 0 (no).

API: query returns whether the molecule falls strictly under 200 nM in IC50. Query: CCCC(C)N1CCC(N(Cc2ccccc2)C(=O)Nc2ccc(Cl)cc2)CC1 (stereo not shown)
1 (yes)

Take the molecule CCCC(C)N1CCC(N(Cc2ccccc2)C(=O)Nc2ccc(C(F)(F)F)nc2C)CC1 (stereo not shown) and say whether its IC50 is less than 200 nM.
0 (no)

Lab log: compare recorded IC50 with 200 nM; is it strictly lower for COc1ccccc1CN1CCC(N(Cc2ccccc2)C(=O)Nc2cc(F)cc(C(F)(F)F)c2)CC1 ?
0 (no)

Find out if reported IC50 for CCCC(C)N1CCC(N(Cc2ccccc2)C(=O)Nc2ccc(F)c(C(F)(F)F)c2)CC1 (stereo not shown) is less than 200 nM
0 (no)

Does the reported IC50 of the following molecule sit strictly below 200 nM? CCCC(C)N1CCC(N(Cc2ccccc2)C(=O)Nc2ccc(C(C)(C)C)cc2)CC1 (stereo not shown)
0 (no)

====

target: DCN1-UBC12 interaction (Homo sapiens (Human)); test: biochemical; type: binding; conditions: read-out: TR-FRET IC50
pIC50: −log10 of the molar value.
Measure: pIC50

# return recorded pIC50 for input O=C(Nc1cc(F)cc(C(F)(F)F)c1)N(Cc1ccccc1)C1CCN(Cc2cncnc2)CC1 [A210]
< 4.66

Tell me pIC50 reported for CCCCN1CCC(N(Cc2ccccc2)C(=O)Nc2ccc(OC)c(Cl)c2)CC1 [A287]
< 4.14

Entry CC(=O)O[C@H]1CN(Cc2ccccc2)CC[C@@H]1NC(=O)Nc1cccc(C(F)(F)F)c1 [A160] needs its pIC50 filled in; supply it.
5.10

Give reported pIC50 value for CCCC(C)N1CCC(N(Cc2ccccc2)C(=O)Nc2ccc3ncccc3c2)CC1 (centres unmarked) [A207]
< 4.68

Output pIC50 of COc1cccc(NC(=O)NC2CCN(Cc3ccccc3)CC2)c1 [B61]
< 4.17

====

assay: in vivo; conditions: male, Plasma Concentration, Single Dose (0 hr), time 24.4 hr
Measure: concentration at 24.4 h
The reply should read as a number followed by its unit.

Tell me concentration at 24.4 h reported for CCCCN1CCC(N(Cc2ccccc2)C(=O)Nc2ccc(Cl)c(Cl)c2)CC1
0.47 µM

====

experiment: in vivo; settings: male, Testis Concentration (μM), 50 mg/kg, Day 3
Measure: concentration at 3 day (µM)
// return numeric value only (unit: µM, not printed)

Give concentration at 3 day for CCCCN1CCC(N(Cc2ccccc2)C(=O)Nc2ccc(Cl)c(Cl)c2)CC1 [A7]
11.6

====

target: DCN1-UBC12 interaction (Homo sapiens (Human), UniProt Q96GG9); experiment: biochemical; assay type: binding; conditions: read-out: TR-FRET IC50
Sequence (Q96GG9 60-248 limits assumed): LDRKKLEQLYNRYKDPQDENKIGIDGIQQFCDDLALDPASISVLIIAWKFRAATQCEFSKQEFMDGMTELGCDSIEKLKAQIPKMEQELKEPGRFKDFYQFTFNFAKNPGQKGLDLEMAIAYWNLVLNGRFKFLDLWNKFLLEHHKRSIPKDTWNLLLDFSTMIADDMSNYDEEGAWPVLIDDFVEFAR
Hi there, I'd appreciate the recorded pIC50 for every entry that follows.
Lab note: report pIC50 as minus log10 of the concentration in molar units, number only.

For DCN1-UBC12 interaction (Homo sapiens (Human), UniProt Q96GG9), give the measured pIC50 of the entry CCCCN1CCC(N(Cc2ccccc2)C(=O)Nc2cc(F)cc(F)c2)CC1 [A142]
5.37

Quote pIC50 with test system DCN1-UBC12 interaction (Homo sapiens (Human), UniProt Q96GG9) for CCCC(C)N1CCC(N(Cc2ccc3c(c2)OCO3)C(=O)Nc2ccc(Cl)c(Cl)c2)CC1 (stereo not drawn) [A9]
7.10

Send back DCN1-UBC12 interaction (Homo sapiens (Human), UniProt Q96GG9) pIC50 of CN1CC(NC(=O)NC2CCN(Cc3ccccc3)CC2)c2ccccc2C1=O (stereo not drawn) [B17] only.
4.25

Give pIC50 for this entry on DCN1-UBC12 interaction (Homo sapiens (Human), UniProt Q96GG9): CCCC(C)N1CCC(N(Cc2ccccc2)C(=O)Nc2cc(F)c(F)c(F)c2)CC1 (stereo not drawn) [A59]
6.45

Print DCN1-UBC12 interaction (Homo sapiens (Human), UniProt Q96GG9) pIC50 for Cc1ccc(C(=O)N2CCC(c3nc4ccccc4s3)CC2)cc1 [D3] .
4.83
